The reported numbers originate from patent US20080234233A1.

Parameter Inhibitory rate against NF-κB activation (%): see the listing below.
- Tested on: NF-κ B activation
- protocol: Inhibitory activity of NF-κB activation, luciferase reporter assay under TNF-α stimulation in HepG2
- Assay type: cell-based, human
- condition_label: Drug concentration at 10 μg/mL; HepG2, TNF-α 40 ng/ml, 4 hours
- Procedure: Measurement of Inhibitory Activity of NF-κB activation Using a transfection reagent (Effectene; QIAGEN), the human hepatoma cell strain HepG2 was transfected with a plasmid (pNF κ B-Luc Reporter Plasmid; […]) integrated with an oligonucleotide having five tandem copies of NF-κ B binding sequences([…]) on a upstream region of firefly luciferase gene(Luc) according to the QIAGEN's protocol, and the cells were incubated for 6 to 24 hours. […]
Supply the numeric figure in %, leaving out any unit text.

Below, 3 compounds whose answers are already recorded.
[
  {
    "compound": "O=C(Nc1cc(Cl)cc(Cl)c1)c1c(O)ccc2ccccc12 [compound 182]",
    "assay_target": "NF-κ B activation",
    "units_text": "%",
    "reported_measurement": 90.2
  },
  {
    "compound": "O=C(Nc1cc(C(F)(F)F)ccc1C(F)(F)F)c1cc(Br)ccc1O [compound 268]",
    "assay_target": "NF-κ B activation",
    "units_text": "%",
    "reported_measurement": 98.4
  },
  {
    "compound": "COc1ccc(O)c(C(=O)Nc2cc(C(F)(F)F)cc(C(F)(F)F)c2)c1 [compound 33]",
    "assay_target": "NF-κ B activation",
    "units_text": "%",
    "reported_measurement": 97.0
  }
]

Give Inhibitory rate against NF-κB activation (%) for the following compound: Cc1ccc(-c2ccccc2)cc1NC(=O)c1cc(Cl)ccc1O [compound 172] 96.4

Give Inhibitory rate against NF-κB activation (%) for the following compound: O=C(Nc1cc(C(F)(F)F)ccc1C(F)(F)F)c1cc(Br)ccc1O [compound 83] 98.3
